meta.source: patent US4235916A

- System: physostigmine
- procedure text: Physostigmine antagonism
- Type: in vivo, male
- condition description: Mus musculus, ip, 0.5 h; mice, i.p., physostigmine 2 mg/kg i.p. thirty minutes after test substance; survivors after 60 minutes; read-out: Physostigmine antag. (ED50)
# note: exactly 7 mg/kg is not below, so it is 0 (no); use 1 (yes) for ED50 strictly under it

Record excerpt, results attached:
CN1CCC(=C2c3ccc(F)cc3Sc3ccc(Cl)cc32)CC1 [Lu 12-304]	0 (no)
CSc1ccc2c(c1)C(=C1CCN(C)CC1)c1ccccc1S2 [Lu 14-145]	1 (yes)
CN1CCC(=C2c3ccccc3Sc3ccc(C(F)(F)F)cc32)CC1 [Lu 13-003]	1 (yes)
OCCN1CCN(CCC=C2c3ccccc3Sc3ccc(C(F)(F)F)cc32)CC1 [flupentixol]	0 (no)
CN(C)CCCN1c2ccccc2Sc2ccc(Cl)cc21 [chlorpromazine]	0 (no)
CN(C)CC/C=C1/c2ccccc2Sc2ccc(Cl)cc21 [chlorprothixene]	0 (no)

Prompt line: Determine if OCCN1CCN(CCC=C2c3ccccc3Sc3ccc(Cl)cc32)CC1 [clopenthixol] shows ED50 strictly lower than 7 mg/kg.
Response line: 0 (no)

Prompt line: Determine if OCCN1CCN(CCCN2c3ccccc3Sc3ccc(C(F)(F)F)cc32)CC1 [fluphenazine] shows ED50 strictly lower than 7 mg/kg.
Response line: 0 (no)

Prompt line: Determine if CN1CCN(C2=Nc3cc(Cl)ccc3Nc3ccccc32)CC1 [clozapine] shows ED50 strictly lower than 7 mg/kg.
Response line: 0 (no)

Prompt line: Determine if O=C(CCCN1CCC(O)(c2ccc(Cl)cc2)CC1)c1ccc(F)cc1 [haloperidol] shows ED50 strictly lower than 7 mg/kg.
Response line: 0 (no)

Prompt line: Determine if CN1CCC(=C2c3ccc(F)cc3Sc3ccc(C(F)(F)F)cc32)CC1 [Lu 12-312] shows ED50 strictly lower than 7 mg/kg.
Response line: 0 (no)

Prompt line: Determine if CN1CCC(=C2c3ccccc3Sc3ccc(Cl)cc32)CC1 [Lu 13-016] shows ED50 strictly lower than 7 mg/kg.
Response line: 1 (yes)

---

So I've got a bunch of compounds here, and I need their ED50 values.
- procedure text: Catalepsy wire mesh, rat, max.
- Assay type: in vivo, male
- condition description: rat, in vivo, sc; rats, wire mesh, maximum effect within first 6 hours
One number for each entry, in mg/kg.

Some solved cases for reference:
CN1CCC(=C2c3ccc(F)cc3Sc3ccc(C(F)(F)F)cc32)CC1 [Lu 12-312]	0.067
CN1CCN(C2=Nc3cc(Cl)ccc3Nc3ccccc32)CC1 [clozapine]	85
OCCN1CCN(CCC=C2c3ccccc3Sc3ccc(C(F)(F)F)cc32)CC1 [flupentixol]	0.25

Prompt line: Data request, read-out ED50, for CSc1ccc2c(c1)C(=C1CCN(C)CC1)c1ccc(F)cc1S2 [Lu 14-089]
Response line: 6.3

---

- procedure text: Catalepsy wire mesh, rat, max.
- Format: in vivo, male
- condition description: rat, in vivo, sc; rats, wire mesh, maximum effect within first 6 hours
metric name: ED50 (mg/kg)
Give bare numbers, in mg/kg.

Some solved cases for reference:
CN(C)CC/C=C1/c2ccccc2Sc2ccc(Cl)cc21	4
CN1CCC(=C2c3ccccc3Sc3ccc(C(F)(F)F)cc32)CC1	1.3
O=C(CCCN1CCC(O)(c2ccc(Cl)cc2)CC1)c1ccc(F)cc1	0.21
CN(C)CCCN1c2ccccc2Sc2ccc(Cl)cc21	5.6
CN1CCC(=C2c3ccccc3Sc3ccc(Cl)cc32)CC1	25

Give measured ED50 for every item shown.
1. OCCN1CCN(CCCN2c3ccccc3Sc3ccc(C(F)(F)F)cc32)CC1
2. CN1CCC(=C2c3ccc(F)cc3Sc3ccc(Cl)cc32)CC1
3. OCCN1CCN(CCC=C2c3ccccc3Sc3ccc(Cl)cc32)CC1

Response line:
[0.099, 3.4, 0.95]
